# System: Mcl-1-/- mouse embryonic fibroblasts (MEF)
# assay-notes: Cell viability assay for Mcl-1-/- mouse embryonic fibroblasts (CellTiter-Glo)
# Type: cell-based
# run-conditions: Fibroblast, in the presence of 10% Fetal Bovine Serum, read-out: MEF Mcl-1-/- KO cell viability results (EC50)
result-type: log10 EC50 (log10 of the value in nM)
Record value = log10 of EC50 given in nM.

Provide measured log10 EC50 value, entry: "O=C(Nc1nc2ccccc2s1)c1cccc2c1CN(c1nc(C(=O)O)c(CCCOc3ccc(-c4ncccn4)cc3)s1)CC2"
1.00

Provide measured log10 EC50 value, entry: "CN(C)CC#Cc1ccc(OCCCc2sc(N3CCc4cccc(C(=O)Nc5nc6ccccc6s5)c4C3)nc2C(=O)O)cc1"
0.85

Provide measured log10 EC50 value, entry: "CN(C)CC#Cc1ccc(OCCCc2ccc(N3CCc4cccc(C(=O)Nc5nc6ccccc6s5)c4C3)nc2C(=O)O)c(F)c1"
1.41

Provide measured log10 EC50 value, entry: "CN1CCN(CCCNc2ncnc3c2cnn3-c2ccc(OCCCc3sc(N4CCc5cccc(C(=O)Nc6nc7ccccc7s6)c5C4)nc3C(=O)O)cc2)CC1"
1.34

Provide measured log10 EC50 value, entry: "N#Cc1ncccc1-c1ccc(OCCCc2sc(N3CCc4cccc(C(=O)Nc5nc6ccccc6s5)c4C3)nc2C(=O)O)cc1"
3.11

Provide measured log10 EC50 value, entry: "O=C(Nc1nc2ccccc2s1)c1cccc2c1CN(c1nc(C(=O)O)c(CCCOc3ccc(OCCN4CCOCC4)cc3)s1)CC2"
1.45

Provide measured log10 EC50 value, entry: "CN1CCN(c2ccc(OCCCc3sc(N4CCc5cccc(C(=O)Nc6nc7ccccc7s6)c5C4)nc3C(=O)O)cc2)CC1"
1.48
